Quick reference: inhibition of the listed items.
- study_target: Group 3 secretory phospholipase A2 (Homo sapiens) (UniProt Q9NZ20)
- Sequence (Q9NZ20 whole entry, looked up): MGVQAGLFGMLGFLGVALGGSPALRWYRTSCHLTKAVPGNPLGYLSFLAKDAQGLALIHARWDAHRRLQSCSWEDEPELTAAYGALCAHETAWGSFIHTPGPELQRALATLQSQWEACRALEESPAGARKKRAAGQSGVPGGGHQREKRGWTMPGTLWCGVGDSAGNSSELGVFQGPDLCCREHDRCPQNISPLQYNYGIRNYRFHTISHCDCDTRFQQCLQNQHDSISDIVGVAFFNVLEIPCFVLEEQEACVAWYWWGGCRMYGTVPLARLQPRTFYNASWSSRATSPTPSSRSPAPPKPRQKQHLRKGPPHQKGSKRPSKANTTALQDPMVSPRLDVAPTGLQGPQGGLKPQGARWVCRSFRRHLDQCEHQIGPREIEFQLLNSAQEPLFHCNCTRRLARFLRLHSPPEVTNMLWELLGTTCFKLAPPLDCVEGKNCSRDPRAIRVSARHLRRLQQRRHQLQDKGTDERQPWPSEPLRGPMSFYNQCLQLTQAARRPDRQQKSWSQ
- experimental_details: human group III sPLA2 inhibitors, primary screen, biochemical, QFRET, BODIPY PC-A2 liposome substrate (AID 743126);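 note: 0% = median of test compound wells and 100% = no enzyme DMSO wells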
- details: QFRET BODIPY PC-A2 liposome hydrolysis, fluorescence; at 12.2 µM; active compounds read high
Among all 370,000 compounds or so, about 2,100 (0.57%) were called active. The full list was thinned out, with actives kept by preference.
Just the number please, in %, no unit attached.

Below: 3 compounds and their reported inhibition.
Cc1cc(-n2nc(C)cc2C)n2ncc(-c3ccccc3)c2n1 = 21.3
CC(NC(=O)COC(=O)C1CCN(S(=O)(=O)c2ccccc2C(F)(F)F)CC1)c1ccccc1 (configuration not stated) = -13.3
CC(NC(=O)Cn1cc(C(F)(F)F)cc(Cl)c1=O)c1ccccc1 (configuration not stated) = 0.8

For `Nn1c(SCC(=O)Nc2cccc3ccccc23)nnc1-c1cc(-c2ccc(F)cc2)n[nH]1` , what is its reported inhibition? -0.61

For `Cc1ccc(C(=O)Nc2nc(N)n(-c3ccccc3)n2)cc1` , what is its reported inhibition? 12.6

For `O=C1CC[C@@H](COc2ccc3[nH]cc(-c4ccccc4)c3c2-c2ccccc2)N1` , what is its reported inhibition? -47.7

For `COc1ccc(CN2C/C(=C/c3ccccc3)N3C(=O)C[C@@H](c4ccccc4)N=C23)c(OC)c1` , what is its reported inhibition? -11.6

For CC(NC(=O)COC(=O)Cn1cc(C(F)(F)F)ccc1=O)c1ccccc1 (configuration not stated) , what is its reported inhibition? 19.8

For `CCn1c(=O)n2n(c1=O)[C@@]1(C=C3CCCC[C@H]32)N=C(NC(=O)c2ccccc2)N(Cc2ccccc2)[C@H]1Cc1ccccc1` , what is its reported inhibition? 10.8

For `Cc1cc(C)n(-c2nc(C(F)(F)F)nc3ccccc23)n1` , what is its reported inhibition? 1.7

* * *

- study_target: Group 3 secretory phospholipase A2 (Homo sapiens) (UniProt Q9NZ20)
- experimental_details: human group III sPLA2 inhibitors, primary screen, biochemical, QFRET, BODIPY PC-A2 liposome substrate (AID 743126);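 note: 0% = median of test compound wells and 100% = no enzyme DMSO wells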
- details: QFRET BODIPY PC-A2 liposome hydrolysis, fluorescence; at 12.2 µM; active compounds read high
In all, about 370,000 compounds went through this assay and about 2,100 (0.57%) were called active. The full list was thinned out, with actives kept by preference.
quantity_name: inhibition (%)
Just the number please, in %, no unit attached.

Below: 6 compounds and their reported inhibition.
CCCCC(=O)N[C@@H]1CC[C@@]23CCCN2C(=O)CCC[C@H]3[C@H]1C = 7.19
O=C(NNC(=S)NC1CC2CCC1C2)c1ccc(Cl)cc1 (stereo not drawn) = 19.4
COc1ccc(OCC(=O)NCCc2ccc(S(N)(=O)=O)cc2)cc1 = 0.5
CSC1=NN(c2ccccc2)CN(c2ccccc2)N1C = 21.7
CN(CCc1ccccc1)C(=O)Cn1nc(-c2ccccc2)ccc1=O = 4.61
O=C(NN1C(=O)C2CCCCC2C1=O)c1ccco1 (stereo not drawn) = -6.36

For `COC1=C[C@H](C(=O)NCCNC(C)=O)[C@H](C)[C@@H](c2ccccc2)CC1=O` , what is its reported inhibition? -0.85

For `CC(=O)Nc1ccc(Oc2ccc3c(c2)C(=O)NC3=O)cc1` , what is its reported inhibition? 1.41

* * *

- study_target: Group 3 secretory phospholipase A2 (Homo sapiens) (UniProt Q9NZ20)
- experimental_details: human group III sPLA2 inhibitors, primary screen, biochemical, QFRET, BODIPY PC-A2 liposome substrate (AID 743126);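 note: 0% = median of test compound wells and 100% = no enzyme DMSO wells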
- details: QFRET BODIPY PC-A2 liposome hydrolysis, fluorescence; at 12.2 µM
In all, about 370,000 compounds went through this assay and about 2,100 (0.57%) were called active.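 Rule for the calls: active = inhibition above mean plus 3 SD of compounds lying within the high and low control bounds (cut at about 19% in these data); inactive = the rest.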 The list comes from a sample in which actives are over-represented; it also holds close analogues and randomly drawn compounds.
Allowed answers: t for active, f for inactive

// below: answered compounds
CCCc1cc(-c2n[nH]c(=S)n2Cc2ccccc2)cs1 = f
COC(=O)c1cc(S(=O)(=O)N2CCN(c3ccccc3C)CC2)cn1C = f
CCc1cc(-c2n[nH]c(=S)n2CC(C)C)cs1 = t
O=C(NC(=S)Nc1ncccn1)c1ccccc1Br = t
CC(=O)N1CCN(c2ccccc2NC(=S)NC(=O)c2cc3ccccc3o2)CC1 = f
Cc1ccc(NC(=O)CN(C)Cc2ccc(F)cc2)c([N+](=O)[O-])c1 = f
CCCCCCN1CCS(=O)(=O)N(Cc2ccc(C(F)(F)F)cc2)C(C(=O)OC)C1 (stereo unspecified) = f
C/C(=N\Nc1ccc(Cl)nn1)c1ccccc1O = t
c1ccc(C2=Nc3cccc4cccc(c34)N2)cc1 = t
CSC1=NCCN1C(=O)Cc1cccc2ccccc12 = f

Would you mind telling me which call this test gave FC(F)(F)c1cccc(NC(=S)OC2CCC23CCC(c2ccccc2)CC3)c1 (stereo unspecified) ? f

Would you mind telling me which call this test gave `CSc1ccc(NC(=O)/C=C/C(=O)O)cc1` ? t

Would you mind telling me which call this test gave `O=C(COC(=O)/C=C/c1nc2ccccc2s1)Nc1ccccc1Oc1ccccc1` ? f

Would you mind telling me which call this test gave `FC(F)(F)c1cccc(Cn2ccc3ccc(-c4ccc5ccn(Cc6ccccc6)c5c4)cc32)c1` ? f

Would you mind telling me which call this test gave `COc1cc(C(=O)NNC(=O)c2ccc(S(=O)(=O)N3CCCCC3)cc2)cc(OC)c1OC` ? f

Would you mind telling me which call this test gave `CC1CCN(C(=S)NC(=O)c2ccccc2Br)CC1` ? f

Would you mind telling me which call this test gave `Cc1c(NC(=S)NCc2ccc(F)cc2)cccc1[N+](=O)[O-]` ? t

Would you mind telling me which call this test gave CCC(c1ccc(NC(=O)OC(C)(C)C)cc1)c1cc(OC)cc(OC)c1 (stereo unspecified) ? f

Would you mind telling me which call this test gave Cc1ccc(NC(=O)C2CC2c2ccccc2)cc1 (stereo unspecified) ? f

Would you mind telling me which call this test gave CC(=O)c1ccc(Nc2nc(C(N)c3ccccc3Cl)cs2)cc1 (stereo unspecified) ? f

Would you mind telling me which call this test gave `CCOC(=O)C1CCN(C(=O)C(C)(C)NC(=O)Nc2ccccc2Cl)CC1` ? f

Would you mind telling me which call this test gave COc1ccc2c(c1)CN1CN(CCc3ccccc3)S(=O)(=O)CC21 (stereo unspecified) ? f

Would you mind telling me which call this test gave CC(c1ccc(N)cc1)c1cn(C)c2ccccc12 (stereo unspecified) ? f

Would you mind telling me which call this test gave `O=C(OCC#CCSc1nnc(-c2ccco2)o1)c1ccc(F)cc1` ? f

Would you mind telling me which call this test gave `Cc1ccc(C2=CCN(C)C(=O)N2c2ccc(Cl)cc2)cc1` ? f

Would you mind telling me which call this test gave `O=C(NC1CCC1)c1ccc(C#Cc2cccc(F)c2)c[n+]1[O-]` ? f

Would you mind telling me which call this test gave CSc1ccc(NC(=O)N2CC(C)OC(C)C2)cc1 (stereo unspecified) ? f

Would you mind telling me which call this test gave `CC(=O)c1nnn(-c2ccc(Cl)cc2C#N)c1C` ? t

* * *

Quick reference: inhibition of the listed items.
- study_target: Group 3 secretory phospholipase A2 (Homo sapiens) (UniProt Q9NZ20)
- experimental_details: human group III sPLA2 inhibitors, primary screen, biochemical, QFRET, BODIPY PC-A2 liposome substrate (AID 743126);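 note: 0% = median of test compound wells and 100% = no enzyme DMSO wells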
- details: QFRET BODIPY PC-A2 liposome hydrolysis, fluorescence; at 12.2 µM; active compounds read high
The campaign covered roughly 370,000 compounds. About 2,100 (0.57%) were called active. The list comes from a sample in which actives are over-represented; it also holds close analogues and randomly drawn compounds.
Just the number please, in %, no unit attached.

Below: 5 molecules and their reported inhibition.
O=C(NCc1ccc(Cl)cc1)C1CCCN(c2nc3ccccc3o2)C1 (stereo not given) = 0.81
CCN(Cc1ccccc1)C(=O)CN1C(=S)NC(C)(C)CC1C (stereo not given) = 31.1
CCCCN1CCN(C(=O)c2ccc3c(c2)NC(=O)C(C)(C)O3)CC1 = 5.11
COc1ccc(C(=O)Nc2sc(C)c(C)c2CN2CCOCC2)cc1 = 21.9
Cc1ccc(S(=O)(=O)NCc2nc3ccccc3c(=O)n2N)cc1 = 2.93

For `CN(C)[C@H]1CCN(c2cccc3c2S(=O)(=O)N2CC[C@H](C2)O3)C1` , what is its reported inhibition? -0.04

For `CC[C@]1(O)C[C@@H]2CN(CCc3c([nH]c4ccccc34)[C@@](C(=O)OC)(c3cc4c(cc3OC)N(C)[C@H]3[C@@](O)(C(=O)OC)[C@H](OC(C)=O)[C@]5(CC)C=CCN6CC[C@]43[C@@H]65)C2)C1` , what is its reported inhibition? 24.8

For `Cc1ccc(C(=O)CSc2nc3ccccc3c(=O)n2N)o1` , what is its reported inhibition? -0.69

For COC(=O)C12C=C3CC(c4ccccc4)=C3C(=O)N1Cc1[nH]c3ccccc3c1C2 (stereo not given) , what is its reported inhibition? -7.07

For `COC(=O)[C@@]12CCCCC=C1N(CCc1ccc(Cl)cc1)C(=O)[C@H]2CC(=O)NCc1ccc(OC)c(OC)c1` , what is its reported inhibition? -15
